meta.source: patent US4694090A

Assay: Inhibition of linoleic acid oxidation (ferric thiocyanate absorbance at 500 mμ)
Settings: 0.2% by weight on linoleic acid basis, pH 9, 70° C., 1 hr
// Absorbance, solution after 1 hr. of heating lookup, one value per entry
METRIC: Absorbance, solution after 1 hr. of heating

1) Cc1cc(O)cc2c1OC(C)(CC(N)C(=O)O)CC2 (centres unmarked)	0.02
2) O=C1O[C@H]([C@@H](O)CO)C(O)=C1O [Ascorbic acid, reference compound]	0.10
3) O=C1OC(C(O)CO)C(O)=C1O (centres unmarked) [Sodium erithorbate, reference compound]	0.11
4) Cc1c(C)c2c(c(C)c1O)CCC(C)(C(N)C(=O)O)O2 (centres unmarked)	0.02
5) CC1(CC(N)C(=O)O)CCc2cc(O)ccc2O1 (centres unmarked)	0.02

----------
// Absorbance, solution after 1 hr. of heating lookup, one value per entry
Assay: Inhibition of linoleic acid oxidation (ferric thiocyanate absorbance at 500 mμ)
Conditions: 0.2% by weight on linoleic acid basis, pH 9, 70° C., 1 hr
Description: Inhibition of linoleic acid oxidation A test solution (10 ml) was prepared by adding each test compound, in an amount of 0.2% by weight on the linoleic acid basis, to a borate buffer (pH 9) containing 10^-2 M sodium linoleate. […] Exactly 3 minutes later, the resulting solution was measured for the absorbance at 500 mμ. […] The greater the absorbance of the test solution after heating is, the greater the amount of sodium linoleate peroxides formed is.
METRIC: Absorbance, solution after 1 hr. of heating

1. Cc1c(C)c2c(c(C)c1O)CCC(C)(CC(N)C(=O)O)O2 (stereo not shown) [drawing 62]	0.02
2. CCCCCCCCCCCCCCCCCCOC(=O)C(N)CC1(C)CCc2c(C)c(O)c(C)c(C)c2O1 (stereo not shown)	0.03
3. Cc1c2c(c3ccccc3c1O)OC(C)(CC(N)C(=O)O)CC2 (stereo not shown)	0.02
4. Cc1c(C)c2c(c(C)c1O)CCC(C)(CCC(N)C(=O)O)O2 (stereo not shown)	0.02
5. Cc1c(C)c2c(c(C)c1O)CCC(C)(CCCC(C)CCCC(C)CCCC(C)C)O2 (stereo not drawn) [α-Tocopherol, reference compound]	0.07
6. Cc1c(C)c2c(c(C)c1O)CCC(C)(CC(N)C(=O)O)O2 (stereo not shown) [drawing 71]	0.02
7. COc1c(O)c(C)c2c(c1OC)OC(C)(CC(N)C(=O)O)CC2 (stereo not shown)	0.02
8. Cc1cc2c(c(C)c1O)CCC(C)(CC(N)C(=O)O)O2 (stereo not shown)	0.02
9. CCOC(=O)C(N)CC1(C)CCc2c(C)c(O)c(C)c(C)c2O1 (stereo not shown)	0.02
10. Cc1c(C)c2c(c(C)c1O)CCC(C)(CC(N)C(=O)O)O2 (stereo not shown) [drawing 70]	0.02

----------
Assay: Analgesic activity, acetic acid writhing test (mice)
Type: in vivo, Male ddY strain mice
Settings: 100 mg/kg, s.c., male ddY mice, groups of ten
Where a name gives a salt, the structure may show the parent alone.
METRIC: inhibition

1) CC(=O)Oc1ccccc1C(=O)O [Aspirin, reference compound]	40.8%
2) Cc1c(C)c2c(c(C)c1O)CCC(C)(CC(N)CO)O2 (stereo not shown) [Example 17]	83.7%
3) Cc1c(C)c2c(c(C)c1O)CCC(C)(CC(N)C(=O)O)O2 (stereo not shown) [Example 1, hydrochloride]	96.1%
4) Cc1c(C)c2c(c(C)c1O)CCC(C)(CN)O2 (stereo not shown) [Example 19, hydrochloride]	65.6%
